Source listed as patent US6083964A.

assay: Neurotoxicity, rotorod ataxia test, mice, i.p.; set-up: species or system mouse (male Carworth Farms #1); conditions: mouse, in vivo, ip, TD50
Please provide measured TD50 for the entries that follow.
Your answer is read as mg/kg, so omit the unit and give the number.

In: Dear colleague, I am looking for the recorded TD50 of the following molecule: CC(Nc1ccc(Cl)cc1)c1ccncc1 (single isomer, unassigned; (+)) [Compound 1]
Out: 149

In: Please give the measured TD50 for this molecule: CCC(Nc1ccc(Cl)c(Cl)c1)c1ccncc1 (single isomer, unassigned; (+)) [Compound 9]
Out: 279

In: Which value of TD50 has been reported for CCC(Nc1ccc(Cl)cc1)c1ccncc1 (single isomer, unassigned; (+)) [Compound 7] in the records?
Out: 322

====

assay: Neurological deficit, positional sense test and gait and stance test, rats, p.o.; parameters: species or system rat (Sprague-Dawley); conditions: rat, in vivo, po
Assign TD50 to each entry below.

In: Need TD50, item CC(Nc1ccc(Cl)c(Cl)c1)c1ccncc1 (racemic) [reference compound]
Out: > 500 mg/kg

In: Need TD50 of CC(Nc1ccc(Cl)cc1)c1ccncc1 (racemic) [reference compound] , thanks.
Out: > 470 mg/kg

In: Record request: TD50 value, item CC(Nc1cccc(Cl)c1)c1ccncc1 (single isomer, unassigned; (-)) [Compound 4]
Out: > 62.5 mg/kg

In: For CC(Nc1ccc(Cl)cc1)c1ccncc1 (single isomer, unassigned; (+)) [Compound 1] , what is its reported TD50?
Out: > 500 mg/kg

In: Look at this compound and give its reported TD50. CC(Nc1ccc(Br)cc1)c1ccncc1 (racemic) [reference compound]
Out: > 500 mg/kg

====

system: maximal electroshock seizure (MES) in mice; assay: Maximal electroshock seizure (MES) test, mice, i.p.; assay type: in vivo, mouse (male Carworth Farms #1); conditions: Mus musculus, ip, MES test, read-out: ED50
For each of the compounds below, state its ED50.
Please give a number only; it is taken to be in mg/kg.

In: Item CC(Nc1ccc(Cl)cc1)c1ccncc1 (single isomer, unassigned; (+)) [Compound 1] with maximal electroshock seizure (MES) in mice - ED50?
Out: 35.9

In: Hello, I am looking for reported ED50 with maximal electroshock seizure (MES) in mice for CCC(Nc1ccc(Cl)cc1)c1ccncc1 (single isomer, unassigned; (+)) [Compound 7] . Could you help?
Out: 109

In: Field: ED50 (maximal electroshock seizure (MES) in mice). Entry: CCC(Nc1ccc(Cl)c(Cl)c1)c1ccncc1 (single isomer, unassigned; (+)) [Compound 9]
Out: 91.9

In: Find ED50 (maximal electroshock seizure (MES) in mice) for the entry CC(Nc1ccc(Cl)c(Cl)c1)c1ccncc1 (single isomer, unassigned; (+)) [Compound 5]
Out: 76.1
